Test Protocol: Phospholipid binding at pH 7.4 on IAM PC.DD2 HPLC column
Format: physicochemical
Design: key: approximates acetonitrile concentration (%) in mobile phase at elution
Measurement Parameters: pH 7.4
Measure: CHI IAM

Item Smiles	Readout Number
CN(C)CCCN1c2ccccc2Sc2ccc(Cl)cc21	48.16
CC[C@H]1OC(=O)[C@H](C)[C@@H](O[C@H]2C[C@@](C)(OC)[C@@H](O)[C@H](C)O2)[C@H](C)[C@@H](O[C@@H]2O[C@H](C)C[C@H](N(C)C)[C@H]2O)[C@](C)(O)C[C@@H](C)C(=O)[C@H](C)[C@@H](O)[C@]1(C)O	38.79
O=c1[nH]c2ccccc2n1CCCN1CCC(n2c(=O)[nH]c3cc(Cl)ccc32)CC1	43.47

Ref: paper PMC8920097
